Assay: Inhibitory activity expressed as the concentration required to inhibit platelet-activating factor (PAF) induced maximum aggregation by 50%
endpoint.label: IC50 (µM)

[1] CCCCCCCCCCCCCCOCC1COC(COC(=O)N(Cc2cccc[n+]2CC)C(C)=O)C1 (centres undefined)
[2] CCCCCCCCCCCCCCCCCC1OCC(COC(=O)N(Cc2cccc[n+]2CC)C(C)=O)O1 (centres undefined)
[ask] Given the two records 1 and 2 , choose the one whose IC50 value is lower. Please identify the chosen entry by its label.
[reply] 1

* * *

Experiment: Inhibitory activity expressed as the concentration required to inhibit platelet-activating factor (PAF) induced maximum aggregation by 50%
endpoint.label: IC50 (nM)

[a] CCCCCCCCCCCCCCCCOCC1COC(COC(=O)N(Cc2cccc[n+]2CC)C(C)=O)O1 (configuration not stated)
[b] CCCCCCCCCCCCCCCCOCC1COC(COC(=O)N(Cc2cccc[n+]2CC)C(C)=O)C1 (configuration not stated)
[ask] Given the two records a and b , choose the one whose IC50 value is lower. Please identify the chosen entry by its label.
[reply] b
(b: 8.2 nM, a: 15 nM)

* * *

Experiment: Inhibitory activity expressed as the concentration required to inhibit platelet-activating factor (PAF) induced maximum aggregation by 50%
endpoint.label: IC50 (nM)

Some molecules with recorded IC50:
# molecule, IC50 (nM)
measured = [
    ("CCCCCCCCCCCCCCCCOCC1COC(COC(=O)NCc2cccc[n+]2CC)C1 (stereo unspecified)", 5300),
    ("CCCCCCCCCCCCCCCCCCOCC1COC(COC(=O)N(Cc2ccc[n+](CC)c2)C(C)=O)C1 (stereo unspecified)", 2500),
    ("CCCCCCCCCCCCCCCCCCCC1OCC(COC(=O)CCCCC[n+]2ccsc2)O1 (stereo unspecified)", 5500),
    ("CCCCCCCCCCCCCCCCCC1CCC(COC(=O)N(Cc2cccc[n+]2CC)C(C)=O)O1 (stereo unspecified)", 71),
    ("CCCCCCCCCCCCCCCC1CCC(COC(=O)CCCCC[n+]2ccsc2)O1 (stereo unspecified)", 3100),
]

[A] CCCCCCCCCCCCCCC1COC(COCCCCCCCC[n+]2ccsc2)C1 (stereo unspecified)
[B] CCCCCCCCCCCCCCCCOCC1COC(COCCCCCC[n+]2ccsc2)C1 (stereo unspecified)
[ask] Given the two records A and B , choose the one whose IC50 value is lower. Please identify the chosen entry by its label.
[reply] B
(B: 540 nM, A: 1100 nM)

[1] CCCCCCCCCCCCCCCCCCC1COC(COC(=O)N(Cc2cccc[n+]2CC)C(C)=O)C1 (stereo unspecified)
[2] CCCCCCCCCCCCCCCCCC1OCC(COCCCCCC[n+]2cccc3ccccc32)O1 (stereo unspecified)
[3] CCCCCCCCCCCCCCCCOCC1OCC(COCCCCCC[n+]2ccsc2)O1 (stereo unspecified)
[4] CCCCCCCCCCCCCCCCOCC1COC(COC(=O)N(Cc2cccc[n+]2C)C(C)=O)C1 (stereo unspecified)
[5] CCCCCCCCCCCCCCCCCC1OCC(COCCCC[n+]2ccsc2)O1 (stereo unspecified)
[ask] Ascending by IC50, please. Your reply should list the labels following the order given in the request.
[reply] 4, 1, 3, 2, 5
(4: 200 nM, 1: 470 nM, 3: 1300 nM, 2: 2700 nM, 5: 6000 nM)

[I] CCCCCCCCCCCCCCCCCC1OCC(COCCCCCCCC[n+]2ccsc2)O1 (stereo unspecified)
[II] CCCCCCCCCCCCCCCCCCOCC1CC(COCCCCC[n+]2ccsc2)CO1 (stereo unspecified)
[ask] Task for the reader: decide whether I or II has the larger IC50. Please identify the chosen entry by its label.
[reply] I

[a] CCCCCCCCCCCCCCCCOCC1COC(COC(=O)N(CCc2cccc[n+]2CC)C(C)=O)C1 (stereo unspecified)
[b] CCCCCCCCCCCCCCCCCC1OCC(COCCCCCC[N+]2(C)CCOCC2)O1 (stereo unspecified)
[c] CCCCCCCCCCCCCCCCCCOCC1COC(COC(=O)N(Cc2cccc[n+]2CC)C(C)=O)O1 (stereo unspecified)
[ask] List items by IC50 in falling order. Your reply should list the labels following the order given in the request.
[reply] b, a, c
(b: 10000 nM, a: 2600 nM, c: 94 nM)
